target: IGFR kinase (Homo sapiens, UniProt P08069); construct: purchased Millipore; assay: Enzyme assay (c), IGFR kinase, Caliper LabChip; type: biochemical; conditions: 30 nM IGFR kinase, 6 uM ATP, 3 uM peptide mix; read-out: IGFR IC50
Sequence (P08069 31-1367): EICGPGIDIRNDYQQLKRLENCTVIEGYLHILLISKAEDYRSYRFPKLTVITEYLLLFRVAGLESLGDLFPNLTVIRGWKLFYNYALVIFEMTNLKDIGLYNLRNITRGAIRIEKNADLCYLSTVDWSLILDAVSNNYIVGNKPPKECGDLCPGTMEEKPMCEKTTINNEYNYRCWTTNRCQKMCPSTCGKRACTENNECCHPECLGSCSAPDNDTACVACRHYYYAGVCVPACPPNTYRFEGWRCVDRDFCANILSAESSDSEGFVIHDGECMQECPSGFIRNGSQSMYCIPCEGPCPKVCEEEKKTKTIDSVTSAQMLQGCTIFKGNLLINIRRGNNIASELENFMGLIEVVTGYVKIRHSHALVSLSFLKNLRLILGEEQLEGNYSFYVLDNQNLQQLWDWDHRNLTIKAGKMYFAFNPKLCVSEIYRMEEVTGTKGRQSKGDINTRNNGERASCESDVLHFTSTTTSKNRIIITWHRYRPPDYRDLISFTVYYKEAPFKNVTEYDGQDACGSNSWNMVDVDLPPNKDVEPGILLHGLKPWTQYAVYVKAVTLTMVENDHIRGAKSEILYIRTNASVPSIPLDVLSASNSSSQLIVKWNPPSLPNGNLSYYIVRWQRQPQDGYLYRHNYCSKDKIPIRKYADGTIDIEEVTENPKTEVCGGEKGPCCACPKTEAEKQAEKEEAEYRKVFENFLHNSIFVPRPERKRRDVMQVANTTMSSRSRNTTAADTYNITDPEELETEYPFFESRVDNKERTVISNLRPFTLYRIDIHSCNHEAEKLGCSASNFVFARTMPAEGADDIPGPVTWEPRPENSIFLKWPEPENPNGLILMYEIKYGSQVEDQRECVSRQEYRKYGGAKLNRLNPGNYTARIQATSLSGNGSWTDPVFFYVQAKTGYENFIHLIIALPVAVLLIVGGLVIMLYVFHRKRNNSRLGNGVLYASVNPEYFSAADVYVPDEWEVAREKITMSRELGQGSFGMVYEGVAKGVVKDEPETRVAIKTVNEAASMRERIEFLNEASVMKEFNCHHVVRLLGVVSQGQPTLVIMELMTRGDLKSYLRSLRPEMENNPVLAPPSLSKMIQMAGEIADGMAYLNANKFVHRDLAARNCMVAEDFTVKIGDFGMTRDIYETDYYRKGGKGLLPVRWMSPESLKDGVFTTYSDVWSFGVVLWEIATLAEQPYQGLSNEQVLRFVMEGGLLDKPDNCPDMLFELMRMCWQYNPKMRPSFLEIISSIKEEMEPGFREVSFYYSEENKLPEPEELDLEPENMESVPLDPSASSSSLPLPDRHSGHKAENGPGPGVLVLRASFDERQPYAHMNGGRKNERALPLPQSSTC
I'd appreciate it if you marked entries met when IC50 is lower than 0.03 µM and not met when it is not.

INPUT: Please let me know if COc1cc(N2CCCC2)ccc1Nc1ncc(F)c(-c2cnc3ccccn23)n1 shows IC50 below 0.03 µM.
OUTPUT: not met

INPUT: Here is the next compound: COc1cc(N2CC[C@H](O)C2)ccc1Nc1ncc(Cl)c(-c2cnc3ccccn23)n1
OUTPUT: not met

INPUT: Next compound up: CC(=O)N1CCN(c2cc(C)c(Nc3ncc(Cl)c(-c4cnc5ccccn45)n3)cc2F)CC1
OUTPUT: met

INPUT: Would you kindly repeat that for COc1cc(CC(CO)CO)ccc1Nc1ncc(Cl)c(-c2cnc3c(F)cccn23)n1 ?
OUTPUT: met

INPUT: Quick one: COc1cc(N2CCNCC2)ccc1Nc1ncc(C)c(-c2cnc3ccccn23)n1
OUTPUT: met

INPUT: Entry to check: CC(=O)N1CCN(c2ccc(Nc3ncc(Cl)c(-c4cnc5ccccn45)n3)c(C)c2C)CC1
OUTPUT: met

INPUT: Would you kindly repeat that for COc1cc(CN2CCCN(C)CC2)ccc1Nc1ncc(Cl)c(-c2cnc3ccccn23)n1 ?
OUTPUT: met

INPUT: Lookup COc1cc(N2CCN(C(=O)[C@@H](O)CO)CC2)ccc1Nc1ncc(Cl)c(-c2cnc3ccccn23)n1
OUTPUT: met
